- Target Or Test System: CDK19 (Homo sapiens)
- Sequence (Q9BWU1 whole entry): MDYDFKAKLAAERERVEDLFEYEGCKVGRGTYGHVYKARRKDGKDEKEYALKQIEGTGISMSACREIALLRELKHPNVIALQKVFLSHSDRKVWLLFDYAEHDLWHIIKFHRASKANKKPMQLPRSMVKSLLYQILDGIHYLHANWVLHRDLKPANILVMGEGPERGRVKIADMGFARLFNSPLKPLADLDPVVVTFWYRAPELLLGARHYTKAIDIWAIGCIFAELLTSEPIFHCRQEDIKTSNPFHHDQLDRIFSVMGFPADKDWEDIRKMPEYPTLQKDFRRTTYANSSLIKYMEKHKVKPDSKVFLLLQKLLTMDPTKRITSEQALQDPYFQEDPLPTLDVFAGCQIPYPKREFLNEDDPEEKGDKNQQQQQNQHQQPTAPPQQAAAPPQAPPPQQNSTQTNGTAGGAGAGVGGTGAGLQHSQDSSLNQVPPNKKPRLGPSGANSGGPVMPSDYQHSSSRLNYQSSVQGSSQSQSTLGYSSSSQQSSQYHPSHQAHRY
Experimental Readout: IC50

Ask: Please tell me: IC50 of CN(C)C(=O)Cn1cc(-c2ccc(-c3cncc4ccccc34)cc2)cn1 , system CDK19 (Homo sapiens)?
Reply: < 1000 nM
